# targetSystem: Small conductance calcium-activated potassium channel (Rattus norvegicus, UniProt P70604+P70606+P70605)
# testName: SKCa-blocking activity by its ability to inhibit after hyperpolarization (AHP) in cultured rat sympathetic neurons
# Format: functional, cell-based
# testContext: sympathetic neuron
Reported log10 IC50 values for a set of molecules
Friendly reminder: values = log10 of IC50, unit nM.

Would you please look over these solved cases?
>  <molecule>
Cc1cc(NCCCCCCCCCCNc2cc(C)[n+](Cc3ccccc3)c3ccccc23)c2ccccc2n1

>  <log10 IC50>
3.11

$$$$
>  <molecule>
COc1cc(C[n+]2c(C)cc(NCCCCCCCCCCNc3cc(C)[n+](Cc4cc(OC)cc(OC)c4)c4ccccc34)c3ccccc32)cc(OC)c1

>  <log10 IC50>
3.23

$$$$
>  <molecule>
C[n+]1ccc(CCCCCCCCCCc2cc[n+](C)c3ccccc23)c2ccccc21

>  <log10 IC50>
4.60

$$$$
>  <molecule>
Cc1cc(NCCCCCCCCCCNc2cc(C)[n+](CCC(c3ccccc3)c3ccccc3)c3ccccc23)c2ccccc2[n+]1CCC(c1ccccc1)c1ccccc1

>  <log10 IC50>
3.63

$$$$
>  <molecule>
C[n+]1ccc(NCCCCCCCCNc2cc[n+](C)c3ccccc23)c2ccccc21

>  <log10 IC50>
3.43

$$$$
>  <molecule>
Cc1cc(N)c2ccccc2[n+]1CCCCCCCCCC[n+]1c(C)cc(N)c2ccccc21.[Cl-].[Cl-] [DEQUALINIUM CHLORIDE]

>  <log10 IC50>
3.00

$$$$

Query: Tell us which log10 IC50 value is on record for C[n+]1ccc(NCCCCCCCCCCNc2cc[n+](C)c3ccccc23)c2ccccc21
Result: 3.32

Query: Tell us which log10 IC50 value is on record for C[n+]1ccc(NCCCCCCCCCCNc2cc[n+](C)c3cc(Cl)ccc23)c2ccc(Cl)cc21
Result: 3.11

Query: Tell us which log10 IC50 value is on record for c1ccc2c(OCCCCCCCCCCOc3ccnc4ccccc34)ccnc2c1
Result: 4.26

Query: Tell us which log10 IC50 value is on record for Cc1cc(NCCCCCCCCCCNc2cc(C)[n+](Cc3ccccc3)c3ccccc23)c2ccccc2[n+]1Cc1ccccc1
Result: 2.60

Query: Tell us which log10 IC50 value is on record for C[n+]1ccc(OCCCCCCCCCCOc2cc[n+](C)c3ccccc23)c2ccccc21
Result: 3.83

Query: Tell us which log10 IC50 value is on record for C[n+]1ccc(CCCCCCCCCCCCc2cc[n+](C)c3ccccc23)c2ccccc21
Result: 3.59
